Listing: pIC50 of selected compounds
target: PI3Kδ (p110δ/p85α) Recombinant Human Protein (Homo sapiens (Human), UniProt O00329); test: PI3Kδ Scintillation Proximity Assay; conditions: read-out: PI3K-delta SPA IC50
Sequence (O00329 whole entry): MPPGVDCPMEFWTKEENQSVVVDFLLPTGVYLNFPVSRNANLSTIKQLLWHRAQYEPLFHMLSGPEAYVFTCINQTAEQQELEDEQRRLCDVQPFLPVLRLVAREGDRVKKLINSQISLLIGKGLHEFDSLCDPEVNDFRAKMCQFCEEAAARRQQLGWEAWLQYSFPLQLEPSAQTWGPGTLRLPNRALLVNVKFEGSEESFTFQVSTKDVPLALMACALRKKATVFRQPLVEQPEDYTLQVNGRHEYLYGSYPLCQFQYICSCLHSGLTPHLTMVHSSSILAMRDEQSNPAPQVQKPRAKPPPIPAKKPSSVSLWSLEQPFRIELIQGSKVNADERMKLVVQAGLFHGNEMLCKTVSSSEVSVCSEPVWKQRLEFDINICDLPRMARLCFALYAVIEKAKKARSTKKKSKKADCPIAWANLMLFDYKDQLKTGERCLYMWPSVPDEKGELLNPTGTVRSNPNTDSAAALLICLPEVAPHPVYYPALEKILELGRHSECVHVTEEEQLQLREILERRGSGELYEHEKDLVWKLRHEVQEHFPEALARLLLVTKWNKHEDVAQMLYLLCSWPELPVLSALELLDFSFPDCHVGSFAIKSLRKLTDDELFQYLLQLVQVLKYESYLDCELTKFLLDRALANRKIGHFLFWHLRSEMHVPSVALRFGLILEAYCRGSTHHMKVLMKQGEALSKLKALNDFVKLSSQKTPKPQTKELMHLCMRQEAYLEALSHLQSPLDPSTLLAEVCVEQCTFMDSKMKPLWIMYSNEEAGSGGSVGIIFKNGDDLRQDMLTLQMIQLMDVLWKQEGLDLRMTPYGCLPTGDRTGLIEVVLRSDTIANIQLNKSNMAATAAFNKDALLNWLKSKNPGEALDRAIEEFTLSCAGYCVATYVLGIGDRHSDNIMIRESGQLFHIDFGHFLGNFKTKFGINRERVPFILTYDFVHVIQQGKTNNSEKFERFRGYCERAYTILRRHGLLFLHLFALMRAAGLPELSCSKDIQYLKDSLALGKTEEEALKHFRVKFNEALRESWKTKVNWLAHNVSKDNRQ
Sequence (P27986 whole entry partner): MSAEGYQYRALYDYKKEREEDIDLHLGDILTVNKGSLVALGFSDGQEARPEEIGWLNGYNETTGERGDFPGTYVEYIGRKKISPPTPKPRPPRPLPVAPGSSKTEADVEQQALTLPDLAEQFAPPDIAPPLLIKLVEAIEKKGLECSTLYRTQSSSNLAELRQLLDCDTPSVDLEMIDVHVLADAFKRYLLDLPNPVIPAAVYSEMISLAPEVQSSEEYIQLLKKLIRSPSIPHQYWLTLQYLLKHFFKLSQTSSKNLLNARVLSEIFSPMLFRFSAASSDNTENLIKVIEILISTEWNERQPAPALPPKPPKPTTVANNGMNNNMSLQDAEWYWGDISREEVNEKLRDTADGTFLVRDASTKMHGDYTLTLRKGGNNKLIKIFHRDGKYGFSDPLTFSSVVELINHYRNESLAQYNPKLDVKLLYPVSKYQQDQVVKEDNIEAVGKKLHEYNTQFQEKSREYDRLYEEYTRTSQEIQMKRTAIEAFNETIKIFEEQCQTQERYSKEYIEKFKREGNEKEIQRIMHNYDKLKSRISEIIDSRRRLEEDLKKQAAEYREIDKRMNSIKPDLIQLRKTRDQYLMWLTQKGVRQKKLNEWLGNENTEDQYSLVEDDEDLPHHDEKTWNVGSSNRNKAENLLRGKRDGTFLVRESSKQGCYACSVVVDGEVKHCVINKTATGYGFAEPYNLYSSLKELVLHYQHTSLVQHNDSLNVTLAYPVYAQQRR
pIC50: −log10 of the molar value. Structures can show the parent of a compound that is named as a salt.

Worked examples follow.
1) CC(C)c1cnc(-c2cc(-c3cncc(N4CCOCC4)c3)ccn2)[nH]1 [Example 101, trifluoroacetate salt] ... ≥ 6.30
2) Cc1nc(-c2cc(C3=CCCN(S(=O)(=O)c4ccccc4)C3)ccn2)[nH]c1C [Example 214, Trifluoroacetate Salt] ... ≥ 6.30
3) Cc1nc(-c2cc(-c3cncc(C(=O)N4CCC(CCO)C4)c3)ccn2)[nH]c1C (racemic) ... ≥ 7.30
4) Cc1nc(-c2cc(-c3cncc(C(=O)N4CC[C@H](O)C4)c3)ccn2)[nH]c1C ... ≥ 7.30
5) N#CCn1cc(-c2ccnc(-c3ncc(-c4ccccc4)[nH]3)c2)cn1 [Example 56, trifluoroacetate salt] ... ≥ 7.00
6) COc1cncc(-c2ccnc(-c3nc(C)c(-c4ccccc4)[nH]3)c2)c1 [Example 82, trifluoroacetate salt] ... ≥ 7.30
7) c1ccc(-c2cnc(-c3cc(-c4cncc(NC5CCOCC5)c4)ccn3)[nH]2)cc1 [Example 142, trifluoroacetate salt] ... ≥ 7.30
8) CS(=O)(=O)c1cncc(-c2ccnc(-c3ncc(C4CCCC4)[nH]3)c2)c1 [Example 114, trifluoroacetate salt] ... ≥ 7.30

Exercise: State its pIC50: COC1CN(C(=O)c2cncc(-c3ccnc(-c4nc(C)c(C)[nH]4)c3)c2)C1
Solution: ≥ 7.30

Exercise: State its pIC50: Cc1nc(-c2cc(-c3cncc(S(C)(=O)=O)c3)ccn2)[nH]c1C1CC1 [Example 116, trifluoroacetate salt]
Solution: ≥ 7.30

Exercise: State its pIC50: CCCN(C)C(=O)c1cncc(-c2ccnc(-c3nc(C)c(C)[nH]3)c2)c1
Solution: ≥ 6.30

Exercise: State its pIC50: c1ccc(Cn2cc(-c3ccnc(-c4ncc(-c5ccccc5)[nH]4)c3)cn2)cc1 [Example 5, trifluoroacetate salt]
Solution: ≥ 7.30

Exercise: State its pIC50: Nc1cncc(-c2ccnc(-c3ncc(-c4ccccc4)[nH]3)c2)c1 [Example 127, Trifluoroacetate Salt]
Solution: ≥ 7.30

Exercise: State its pIC50: Cc1[nH]c(-c2cc(-c3cncc(N4CCOCC4)c3)ccn2)nc1C(=O)NC1C2CC3CC(C2)CC1C3 (centres unmarked) [Example 278, trifluoroacetate salt]
Solution: ≥ 7.30
